Some compounds, each annotated with its measured IC50.
- ASSAYED_TARGET: GPR73 (prokineticin 1 receptor) (Homo sapiens, UniProt Q8TCW9)
- Sequence (Q8TCW9 whole entry, species assumed): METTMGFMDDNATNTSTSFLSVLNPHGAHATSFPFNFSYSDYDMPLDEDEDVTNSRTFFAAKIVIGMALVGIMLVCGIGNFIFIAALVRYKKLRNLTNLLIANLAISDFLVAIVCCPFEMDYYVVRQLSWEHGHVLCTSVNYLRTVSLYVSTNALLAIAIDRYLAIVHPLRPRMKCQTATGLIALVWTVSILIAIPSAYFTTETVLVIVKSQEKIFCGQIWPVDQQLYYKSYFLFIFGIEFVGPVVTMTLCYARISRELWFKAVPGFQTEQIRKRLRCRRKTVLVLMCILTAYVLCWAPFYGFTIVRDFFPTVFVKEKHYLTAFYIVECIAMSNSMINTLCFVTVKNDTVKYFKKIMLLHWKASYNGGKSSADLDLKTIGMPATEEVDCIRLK
- ASSAY_INFO: PK1 functional assay: Ca2+ mobilization screening for PK1 antagonists on the FLIPR
- MEASUREMENT_CONDITIONS: HEK 293 GPR73 cells; PK1 ligand preparation at its EC50; multiple values = multiple testing; read-out: Ca^2+ Mobilization IC50
Please state the figure in µM; there is no need to write the unit.

Known results for compounds:
For record `COc1ccc(Cn2c(NCc3cccnc3NCCN(C)C)nc(=O)n(Cc3ccc(OC)cc3)c2=O)cc1` the listed IC50 is 0.207

Given item `COc1ccc(Cn2c(=O)nc(NCc3cccnc3N)n(Cc3ccc4sccc4c3)c2=O)cc1` , the value recorded as its IC50 is 0.192

// moving on: another record for IC50
The compound listed as `Cc1cnc(CNc2nc(=O)n(Cc3ccc4c(c3)CCO4)c(=O)n2Cc2ccc(OC(F)F)cc2)cn1` shows IC50 equal to 0.772

Data provenance: patent US20080287445A1
